System: UO-31
Assay: NCI tumour cell line growth inhibition, 48 h
Calls of active or inactive are those of the source. Cut-off read from the data, not from the text of the source: active = GI50 up to about 1.1 µM and inactive = higher.
Lab note: assign the record to one of 1 (active), -1 (inactive)

Example cases with answers are listed next.
O=C(CNc1ccc(Cl)cc1Cl)NC1C=Cc2ccc(S(=O)(=O)Nc3ccc(Cl)cc3Cl)cc2C1=O (configuration not stated) : -1
COC(=O)/C(=N/O)C(C(=O)OC)C(=O)C(=O)Nc1c(Cl)cc(C)cc1S(=O)(=O)O (configuration not stated) : -1
Nc1nc(Cl)cc(NCC2(CO)CC(O)C2)n1 (configuration not stated) : -1
Clc1ccc(-c2nc(-c3ccc(Cl)cc3)[s+]s2)cc1 : -1
O=C(CC(=O)n1nc(-c2ccccc2)c(/N=N/c2ccc(Cl)cc2)c1-c1ccccc1)Nc1ccc(Cl)cc1 : -1
O=CNNC(=O)CSc1nc2ccc(I)cc2c(=O)n1Cc1ccccc1 : -1
Cc1cn(C2CC(/[N+]([O-])=N\Nc3ccc([N+](=O)[O-])cc3)C(CO)O2)c(=O)[nH]c1=O (configuration not stated) : -1
COc1cc2c3c(c1OC)-c1ccccc1C(C(O)c1ccccc1)C3N(C)CC2 (configuration not stated) : -1
O=C1Oc2ccccc2C(=O)/C1=C/NC(=S)NCCc1ccccc1 : -1
CCOC(=O)C1c2[nH]c3ccccc3c2CCN1C(=O)c1ccc(OC)o1 (configuration not stated) : -1

Q: Short answer needed: outcome of this test for CC(=O)Nc1ccc(Nc2nc(=O)[nH]c(=O)[nH]2)cc1 ?
Result: -1

Q: Short answer needed: outcome of this test for CCOC(=O)C(NC(=O)CC)(Nc1ccc(S(=O)(=O)Nc2onc(C)c2C)cc1)C(F)(F)F (configuration not stated) ?
Result: -1

Q: Short answer needed: outcome of this test for CCN(CC)CCCNc1nc(=O)[nH]c(C)c1C(=O)Nc1cccc2cc3ccccc3cc12 ?
Result: -1

Q: Short answer needed: outcome of this test for O=C1c2c(O)cccc2Cc2cccc(O)c21 ?
Result: 1

Q: Short answer needed: outcome of this test for C=C(C)C1CC=C(C)[C@](O)(C2(O)C[C@H](C(=C)C)CC=C2C)C1 (some centres not stated) ?
Result: -1

Q: Short answer needed: outcome of this test for CCOC(=O)N1CCC(=C2c3ccc(Cl)cc3CCc3cccnc32)CC1 ?
Result: -1

Q: Short answer needed: outcome of this test for [N-]=[N+]=NC1(N=[N+]=[N-])C(=O)NN=C(c2ccccc2)C1=O (configuration not stated) ?
Result: -1

---

Tested on: SF-539
Experiment: NCI tumour cell line growth inhibition, 48 h
Activity calls are given as the source filed them. Rule as the data show it: active = GI50 up to about 1.1 µM and inactive = higher.
readout type: GI50

Observe how each entry below is paired with its result.
O=C1Nc2ccccc2/C1=N/NC(=S)Nc1ccc(Cl)cc1 : 29.2 µM (inactive)
COc1cc2c(cc1OS(C)(=O)=O)N=C[C@@H]1CCCN1C2=O : > 100 µM (inactive)
O=C(O)C(Cl)(c1ccccc1)c1ccccc1 : > 100 µM (inactive)
O=C1Oc2ccccc2C(=O)/C1=C/NC(=S)NCCc1ccccc1 : 31.2 µM (inactive)
CC1(c2cccc(Cl)c2)CC(c2cccc(Cl)c2)=C(C#N)C(=C(C#N)C#N)N1 (configuration not stated) : 19.1 µM (inactive)
O=C(Cc1ccccc1)C(c1ccccc1)S(=O)(=O)c1ccccc1 (configuration not stated) : > 100 µM (inactive)
COC(=O)CC(C(C(=O)OCc1ccccc1)C(C)O)N1C(=O)OC(c2ccccc2)C1c1ccccc1 (configuration not stated) : > 100 µM (inactive)
Cc1ccc(S(=O)(=O)c2c(N)c3nccn3c3nc4ccccc4nc23)cc1 : > 100 µM (inactive)

COC(=O)/C(C#N)=C1\NN=NN1CCCc1ccccc1 tested on SF-539 gave GI50: > 100 µM (inactive)

COC(=O)[C@H](CC(C)C)NC1=C(Cl)C(=O)c2c(O)ccc(O)c2C1=O tested on SF-539 gave GI50: 9.02 µM (inactive)

N=C(N)NS(=O)(=O)c1ccc(Nc2c3ccccc3nc3c(C(=O)N4CCN(CCO)CC4)cccc23)cc1 tested on SF-539 gave GI50: > 100 µM (inactive)

---

Test system: OVCAR-3
Assay: NCI tumour cell line growth inhibition, 48 h
Active and inactive are the calls of the source. No stated cut-off is given here; in the data, active = GI50 up to about 1.1 µM and inactive = higher.
Lab note: assign the record to one of active, inactive

Example cases with answers are listed next.
C=CCOC1CC(n2cnc3c(N)ncnc32)OC1CO (stereo not given) : inactive
N#C/N=C(/N)NCO : inactive
COc1ccc(NC(C)=O)c(C(=O)CCNC(C)=O)c1 : inactive
CCOC(=O)C1c2[nH]c3ccccc3c2CCN1C(=O)c1ccc(OC)o1 (stereo not given) : inactive
O=C1Oc2ccccc2C(=O)/C1=C/NC(=S)NCCc1ccccc1 : inactive
CC1(c2cc3c(cc2Br)OCO3)SCCCS1 : inactive
O=C(O)CC[N+]1=CCC(c2ccccc2)(c2ccccc2)O1 : inactive
CCCCCCCC/C=C\CCCCCCCC(=O)NCCN(CCN)C(=O)CCCCCCC/C=C\CCCCCCCC : inactive

Q: Short answer needed: outcome of this test for CC(C)=CCC[C@@H](C)C1=C(O)C(=O)C(C)=C(Nc2ccccc2Cl)C1=O ?
Result: inactive

Q: Short answer needed: outcome of this test for Cc1cc(C#N)c(Nc2c(C)cccc2[N+](=O)[O-])s1 ?
Result: inactive

Q: Short answer needed: outcome of this test for CC[C@@]1(O)C[C@H](OC2CC(N(C)C)C(OC3CC(O)C(OC4CCC(=O)C(C)O4)C(C)O3)C(C)O2)c2c(cc3c(c2O)C(=O)c2c(O)ccc(O)c2C3=O)[C@H]1C(=O)OC (stereo not given in full) ?
Result: active

Q: Short answer needed: outcome of this test for O=C1c2ccccc2-c2c1c(-c1cccc(Br)c1)nc1ccc3ccccc3c21 ?
Result: inactive

---

Here, each record is paired with measured GI50 data.
Test system: HOP-92
Assay: NCI tumour cell line growth inhibition, 48 h
Calls of active or inactive are those of the source. No stated cut-off is given here; in the data, active = GI50 up to about 1.1 µM and inactive = higher.

Observe how each entry below is paired with its result.
O=[N+]([O-])c1cc(CCl)ccc1CCl : 1.76 µM (inactive)
CCN(CC)CCOCCn1c2c(c3ccccc31)CCCC2 : 20.9 µM (inactive)
CCOC(=O)c1ccc2nc(-c3ccc(S(=O)(=O)F)cc3)cc(O)c2c1 : > 100 µM (inactive)
CCN1CCN(c2ccc(Nc3ccnc4ccc5c(nnn5C)c34)cc2)CC1 : 4.8 µM (inactive)
Cc1ccccc1Nc1nc2c(s1)C(=O)c1ccccc1C2=O : 11.9 µM (inactive)

// recorded GI50 for Fc1cccc(C2SCc3nc4ccccc4n32)c1F (stereo unspecified) : 23 µM (inactive)

// recorded GI50 for COc1ccccc1NC(=O)C(=O)C(c1cnc2ccc([N+](=O)[O-])cc2n1)[N+](=O)[O-] (stereo unspecified) : > 100 µM (inactive)

// recorded GI50 for O=Cc1ccc2ccocc1-2 : > 100 µM (inactive)

// recorded GI50 for CN1CCN(c2nc3cc(F)ccc3n3cccc23)CC1 : 30.2 µM (inactive)

// recorded GI50 for COc1cc2c3c(c1OC)-c1ccccc1C(C(O)c1ccccc1)C3N(C)CC2 (stereo unspecified) : 53.3 µM (inactive)

// recorded GI50 for CN(CCc1ccccn1)C(=S)N/N=C(\c1ccccc1)c1ccccn1 : 1.73 µM (inactive)

---

Here, each record is paired with measured GI50 data.
Tested on: DU-145
Test: NCI tumour cell line growth inhibition, 48 h
Active and inactive are the calls of the source. Cut-off read from the data, not from the text of the source: active = GI50 up to about 1.1 µM and inactive = higher.

// recorded GI50 for O=C(O)CC[N+]1=CCC(c2ccccc2)(c2ccccc2)O1 : > 100 µM (inactive)

---

System: RPMI-8226
Experiment: NCI tumour cell line growth inhibition, 48 h
Active and inactive are the calls of the source. No stated cut-off is given here; in the data, active = GI50 up to about 1.1 µM and inactive = higher.
Lab note: assign the record to one of 1 = active, 0 = inactive

COc1ccc2c(c1)[n+]([O-])c(C(=O)C/C(=N\NC(=O)C[N+](C)(C)C)C(=O)Nc1cc(Cl)ccc1Cl)c(C)[n+]2[O-] : 0

Q: Short answer needed: outcome of this test for CC(=O)O/N=C/c1cc2c(cc1Br)OCO2 ?
Result: 0

Q: Short answer needed: outcome of this test for COC(=O)[C@H](CC(C)C)NC1=C(Cl)C(=O)c2c(O)ccc(O)c2C1=O ?
Result: 0

Q: Short answer needed: outcome of this test for OCC(O)C(O)C(O)C(/C=N\Nc1ncnc2ccc(Br)cc12)=N/Nc1ncnc2ccc(Br)cc12 (stereo unspecified) ?
Result: 0

Q: Short answer needed: outcome of this test for COc1cc(C)c(C(=O)/C=C/c2cc(OC)c(O)c(OC)c2)cc1O ?
Result: 0

Q: Short answer needed: outcome of this test for O=C(O)c1cc2ccc(Cl)cc2c(O)c1C1=CCCCC1 ?
Result: 0

Q: Short answer needed: outcome of this test for COC(=O)/C(=C\C(=O)c1ccc(Br)cc1)NN=C(c1ccccc1)c1ccccc1 ?
Result: 0

Q: Short answer needed: outcome of this test for C=CCNC(=S)N/C=C(/C(C)=O)C(=O)Nc1ccccc1C ?
Result: 0

Q: Short answer needed: outcome of this test for O=C(Cc1ccccc1)Oc1ccc2c(-c3ccccc3)c(C(=O)Nc3ccc(Cl)cc3)c(=O)oc2c1 ?
Result: 0

Q: Short answer needed: outcome of this test for N/C(=N\Nc1nc2cc([N+](=O)[O-])ccc2o1)c1ccccn1 ?
Result: 1

Q: Short answer needed: outcome of this test for Cn1c2c(c3c(=O)[nH]ncc31)Cc1ccccc1-2 ?
Result: 0

Q: Short answer needed: outcome of this test for COC(=O)C1CCC[C@H]2C(CO)=C(C)C(=O)[C@@H]12 (stereo partly specified) ?
Result: 0

Q: Short answer needed: outcome of this test for O=C1Nc2ccc(Br)cc2/C1=N/Nc1ccc([N+](=O)[O-])cc1 ?
Result: 0

Data provenance is ChEMBL document CHEMBL1201862.
